# Tested on: human rhinovirus (HRV) serotypes
# Protocol Details: microbe, parasite or virus in culture
# Type: cell-based
# Reported Conditions: read-out: Rhinovirus MIC50
Quantity Kind: MIC50 (µg/mL)
Answers are plain numbers, in µg/mL.

Answered cases to consult:
{"columns": ["Molecule", "Unit Of Measure", "MIC50"],
 "data": [
  ["COCC1CN=C(c2ccc(OCCCCCCCc3cc(C)no3)cc2)O1 (centres unmarked) [Example 40]", "µg/mL", 0.535],
  ["Cc1cc(CCCOCOCCOc2ccc(C3=NCCO3)cc2C)on1 [Example 83]", "µg/mL", 3.75],
  ["Cc1cc(CCCCCCCCOc2ccc(C3=NCCO3)cc2)on1 [18(b)]", "µg/mL", 1.75],
  ["Cc1cc(CCCCCOc2ccc(-c3nc(C)co3)cc2)on1 [Example 133]", "µg/mL", 0.16]
]}

Now turn to the next molecule.
Quick check: MIC50 of CCC[C@@H]1COC(c2ccc(OCCCCCCCc3cc(C)no3)cc2)=N1 [Example 129] ?
1.33

###

# Tested on: human rhinovirus (HRV) serotypes
# Protocol Details: microbe, parasite or virus in culture
# Format: cell-based
# Reported Conditions: read-out: Rhinovirus MIC50
Quantity Kind: MIC50 (µg/mL)
Give bare numbers, in µg/mL.

{"columns": ["Compound", "Target Under Test", "Value Measured"],
 "data": [
  ["Cc1cc(CCCCCOc2ccc(-c3ncc(Cl)o3)cc2)on1", "human rhinovirus (HRV) serotypes", 0.2],
  ["Cc1cc(CCCCCOc2ccc(C3=NCCO3)cc2C(F)F)on1", "human rhinovirus (HRV) serotypes", 0.082],
  ["CCc1cc(C2=NCCO2)cc(C)c1OCCCCCc1cc(C)no1", "human rhinovirus (HRV) serotypes", 1.25]
]}

Parameter requested: MIC50. Apply to each item below.
1. Cc1cc(CCCCCOc2ccc(C3=NCCO3)cc2Br)on1
2. Cc1cc(CCCCCOc2ccc(C3=NC(C)CO3)cc2)on1 (centres unmarked)

1: 0.08; 2: 0.164

###

Give MIC for every item shown.
# Test system: Polio 2
# Protocol Details: microbe, parasite or virus in culture
# Format: cell-based, poliovirus
# Reported Conditions: Enterovirus C, HeLa, read-out: Polio 2 MIC
One number for each entry, in µg/mL.

{"columns": ["Molecule", "Value Measured"],
 "data": [
  ["C=CCc1cc(C2=NCCO2)ccc1OCCCCCc1cc(C)no1", 0.54],
  ["Cc1cc(CCCCCOc2ccc(C3=NC(C)CO3)cc2)on1 (stereo not shown)", 0.07],
  ["Cc1cc(CCCCCCCCOc2ccc(C3=NCCO3)cc2Cl)on1", 1.1]
]}

Parameter requested: MIC. Apply to each item below.
1. Cc1cc(CCCCCCCOc2ccc(C3=NCCO3)cc2C=O)on1
2. Cc1cc(CCCCCOc2ccc(C3=NCCO3)cc2C)on1
3. Cc1cc(CCCOCOCCOc2ccc(C3=NCCO3)cc2)on1
4. Cc1cc(CCC=CCOc2ccc(C3=NCCO3)cc2Cl)on1
5. Cc1cc(CCC#CCOc2c(Cl)cc(C3=NCCO3)cc2Cl)on1

[0.44, 0.1, 0.46, 0.23, 0.4]

Parameter requested: MIC. Apply to each item below.
1. Cc1cc(CCCCCOc2ccc(-c3ncc(Cl)o3)cc2)on1
2. Cc1noc(CCCCCCCOc2ccc(C3=NCCO3)cc2)c1CO

0.033
0.02

###

# System: human rhinovirus (HRV) serotypes
# Protocol Details: microbe, parasite or virus in culture
# Format: cell-based
# Reported Conditions: read-out: Rhinovirus MIC50
Quantity Kind: log10 MIC50 (log10 of the value in µg/mL)
Transform log10 | Measure MIC50 | Unit µg/mL

{"columns": ["Compound", "Value Measured"],
 "data": [
  ["Cc1cc(CCCCCCCOc2ccc(C3=N[C@H](C(C)C)CO3)cc2)on1 [Example 127]", -0.12],
  ["Cc1cc(CCCOc2c(Cl)cc(C3=NCCO3)cc2Cl)on1 [Example 115]", -1.40],
  ["Cc1cc(CCCCCOc2ccc(C3=NC(C)CO3)cc2Cl)on1 (stereo not drawn) [Example 32]", -1.05],
  ["Cc1cc(CCCCCCCOc2ccc(C3=NC(C)CO3)cc2Cl)on1 (stereo not drawn) [17(b)]", -0.05],
  ["CC[C@@H]1COC(c2ccc(OCCCCCCCc3cc(C)no3)cc2)=N1 [Example 125]", -0.16]
]}

Parameter requested: log10 MIC50. Apply to each item below.
1. OCCOCOCc1cc(CCCCCOc2c(Cl)cc(C3=NCCO3)cc2Cl)on1 [149(b)]
2. Cc1cc(CCCCCCOc2ccc(C3=NCCO3)cc2)on1 [14(b)]
3. Cc1cc(CCCCOc2ccc(C3=NC(C)CO3)cc2Cl)on1 (stereo not drawn) [Example 65]
4. Cc1cc(CCCCCOc2c(F)c(F)c(C3=NCCO3)c(F)c2F)on1 [161(c)]
5. Cc1cc(CCCCCOc2c(C)cc(C3=NCCO3)cc2Cl)on1 [154(c)]
6. Cc1cc(CCCCCCCOc2ccc(C3=NCCCO3)cc2)on1 [94(c)]
7. Cc1cc(CCCCCOc2c(Cl)cc(C3=NCCO3)cc2Br)on1 [152(d)]
8. Cc1cc(CCCCCOc2ccc(C3=NCCO3)c(C)c2)on1 [Example 51]

1. -0.89
2. -0.10
3. -0.59
4. -0.60
5. -0.66
6. 0.03
7. -1.02
8. -0.25

Parameter requested: log10 MIC50. Apply to each item below.
1. Cc1cc(CCCCCCCOc2ccc(C3=NC(C)CO3)cc2)on1 (racemic) [Example 3]
2. Cc1noc(CCCCCCCOc2ccc(C3=NCCO3)cc2)c1CO [29(b)]
3. Cc1cc(CCCCCOc2ccc(C3=N[C@@H](C)CO3)cc2)on1 [Example 121]
4. Cc1cc(CCCCCOc2ccc(C3=NCCO3)c(C)c2C)on1 [Example 79]
5. CCCC[C@@H]1COC(c2ccc(OCCCCCCCc3cc(C)no3)cc2)=N1 [Example 131]
6. Cc1cc(CCCCCSc2ccc(C3=NCCO3)cc2)on1 [103(c)]
7. Cc1cc(CCCCCOc2ccc(C3=NCCO3)cc2)no1 [7(k)]
8. Cc1cc(CCCCCCCOc2ccc(C3=NCCO3)c(Cl)c2)on1 [Example 50]

1: -1.15; 2: 0.10; 3: -1.05; 4: -0.52; 5: 0.16; 6: -0.24; 7: 0.11; 8: 0.70

###

# Test system: human rhinovirus (HRV) serotypes
# Protocol Details: microbe, parasite or virus in culture
# Format: cell-based
# Reported Conditions: read-out: Rhinovirus MIC50
Quantity Kind: MIC50 (µg/mL)
One number for each entry, in µg/mL.

{"columns": ["Test Smiles", "MIC50 [µg/mL]"],
 "data": [
  ["COC(=O)CCC(=O)OCc1cc(CCCCCOc2c(Cl)cc(C3=NCCO3)cc2Cl)on1", 0.17],
  ["Cc1cc(CCCCOc2ccc(C3=NCCO3)cc2Cl)on1", 0.087],
  ["Cc1cc(CCCCCOc2c(Cl)cc(C3=NCCO3)cc2[N+](=O)[O-])on1", 0.09],
  ["Cc1cc(CCCCCOc2ccc(C3=NCCO3)cc2)on1", 0.38]
]}

Now turn to the next compound.
Quick check: MIC50 of `Cc1cc(CCCCCOc2ccc(-c3cnco3)cc2)on1` ?
1.4

###

# Tested on: Polio 2
# Protocol Details: microbe, parasite or virus in culture
# Type: cell-based, poliovirus
# Reported Conditions: Enterovirus C, HeLa, read-out: Polio 2 MIC
Quantity Kind: MIC (µg/mL)
Give bare numbers, in µg/mL.

Answered cases to consult:
{"columns": ["Molecule", "Unit Of Measure", "MIC"],
 "data": [
  ["Cc1cc(CCCCCOc2ccc(C3=NCCO3)cc2)on1 [Example 2]", "µg/mL", 0.6],
  ["Cc1cc(CCCCCOc2c(C)cc(C3=NCCO3)cc2C)on1 [Example 58]", "µg/mL", 3.1],
  ["Cc1cc(CCCCCOc2ccc(C3=NCCO3)c(O)c2)on1 [Example 52]", "µg/mL", 0.003]
]}

Parameter requested: MIC. Apply to each item below.
1. Cc1cc(CCCCCOc2c(Cl)cc(C(=O)NCCCl)cc2Cl)on1 [162(c)]
2. CCc1cc(C(=O)NCCCl)cc(C)c1OCCCCCc1cc(C)no1 [157(c)]
3. Cc1cc(CCCCCOc2ccc(C3=NCCO3)cc2C(F)F)on1 [Example 84]
4. OCc1cc(CCCCCCCOc2ccc(C3=NCCO3)cc2)on1 [Example 11]

1: 0.48; 2: 2.1; 3: 0.11; 4: 0.02

Parameter requested: MIC. Apply to each item below.
1. Cc1cc(CCCCCCCOc2ccc(C3=NCCO3)c(C)c2)on1 [38(b)]
2. Cc1cc(CCCCCCCOc2c(Cl)cc(C3=NCCO3)cc2Cl)on1 [Example 114]
3. Cc1cc(CCCCCOc2c(F)c(F)c(C3=NCCO3)c(F)c2F)on1 [161(c)]

1. 0.3
2. 0.48
3. 0.05
